Biological target: Glucagon-like peptide 1 receptor (Homo sapiens)
Sequence (P43220 whole entry): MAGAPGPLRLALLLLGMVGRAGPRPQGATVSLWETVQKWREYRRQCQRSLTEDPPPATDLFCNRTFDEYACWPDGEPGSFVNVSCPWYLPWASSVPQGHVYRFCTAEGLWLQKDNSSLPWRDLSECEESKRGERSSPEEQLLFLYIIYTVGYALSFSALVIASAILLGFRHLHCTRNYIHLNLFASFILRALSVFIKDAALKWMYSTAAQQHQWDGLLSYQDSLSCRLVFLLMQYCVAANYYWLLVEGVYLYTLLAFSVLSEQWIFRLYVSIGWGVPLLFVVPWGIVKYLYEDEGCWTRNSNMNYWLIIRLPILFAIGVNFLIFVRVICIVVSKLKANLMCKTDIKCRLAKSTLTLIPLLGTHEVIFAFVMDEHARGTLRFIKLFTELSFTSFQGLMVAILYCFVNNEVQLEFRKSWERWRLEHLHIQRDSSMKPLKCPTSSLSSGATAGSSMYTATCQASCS
Assay: Agonist activity at human GLP-1 receptor expressed in HEK293 cells assessed as cAMP level measured after 60 mins by HTRF based assay
Format: functional, cell-based
Measured Metric: EC50 (nM)

A selection of reference data follows.
{"Substance": "H-HSQGTFTSDMSSYLDSRRAQDFVDWLMNT-NH2", "Test System": "Glucagon-like peptide 1 receptor (Homo sapiens)", "EC50 (nM)": 0.96}
{"Substance": "H-HSQGTFTSDMSSYLDSRRAQDFVDWLIKGRPSSGAPPPS-NH2", "Test System": "Glucagon-like peptide 1 receptor (Homo sapiens)", "EC50 (nM)": 0.21}
{"Substance": "H-HADGTFTSDMSSYLEEKAAKEFADWLIKGRPK-NH2", "Test System": "Glucagon-like peptide 1 receptor (Homo sapiens)", "EC50 (nM)": 0.094}

P: H-HSQGTFTSDMSKYLDSRRAQDFVDWLIKGR-NH2
Q: H-HSQGTFTSDMSSYLDSRRAQEFVDWLIKGR-NH2
R: H-HADGTFTSDMSSYLEEKAAKAFVDWLIKGRPK-NH2
S: H-HADGTFTSDMSSYLEEKAAKEFVDWAIKGRPK-NH2
Q: Hey, can you sort those substances up there by EC50, smallest first? Enter labels, ranked according to the request.
Ans: R, P, S, Q

A: H-HADGTFTNDMTSYLDAKAARDFVSWLARSDKS-NH2
B: H-HADGTYTSDVSSYLQDQAAKKFVTWLKQGQDRRE-NH2
Q: # compare EC50 for A vs B ; return the one with the smaller value Kindly give the label for the entry you pick.
Ans: A
(A: 0.23 nM, B: 0.35 nM)

I: H-HADGTFTSDMSSYLAEKAAKEFVDWLIKGRPK-NH2
II: H-HADGTFTSDMSSYLEEKAAKEFVAWLIKGRPK-NH2
III: H-HADGIYTSDVASLTDYLKSKRFVESLSNYNRKQNDRRM-NH2
IV: H-HADGTFTSDMSSYLEEKAAKEFVDWLIKGRPA-NH2
Q: Order the records so the highest EC50 appears first and the lowest last. Enter labels, ranked according to the request.
Ans: I, III, II, IV
(I: 0.61 nM, III: 0.19 nM, II: 0.096 nM, IV: 0.018 nM)

A: H-HADGTFTSDMSSYLEEKRAKEFVDWLIKGRPK-NH2
B: H-HSQGTFTSDMSSYLDSRRAQDFVDWLMNTKRNRNNIA-NH2
C: H-HAEGTYTDDVSTYLQDQAAKDFVSWLKSGRA-NH2
D: H-HADGTFTSDMSSYLEEKAAKEFVDWLIKGRPK-NH2
Q: Hey, can you sort those substances up there by EC50, smallest first? Enter labels, ranked according to the request.
Ans: D, B, C, A
(D: 0.051 nM, B: 0.11 nM, C: 0.31 nM, A: 0.72 nM)
